measurement.target: orexin 1 (OX1) receptor (Homo sapiens)
Sequence (O43613 whole entry): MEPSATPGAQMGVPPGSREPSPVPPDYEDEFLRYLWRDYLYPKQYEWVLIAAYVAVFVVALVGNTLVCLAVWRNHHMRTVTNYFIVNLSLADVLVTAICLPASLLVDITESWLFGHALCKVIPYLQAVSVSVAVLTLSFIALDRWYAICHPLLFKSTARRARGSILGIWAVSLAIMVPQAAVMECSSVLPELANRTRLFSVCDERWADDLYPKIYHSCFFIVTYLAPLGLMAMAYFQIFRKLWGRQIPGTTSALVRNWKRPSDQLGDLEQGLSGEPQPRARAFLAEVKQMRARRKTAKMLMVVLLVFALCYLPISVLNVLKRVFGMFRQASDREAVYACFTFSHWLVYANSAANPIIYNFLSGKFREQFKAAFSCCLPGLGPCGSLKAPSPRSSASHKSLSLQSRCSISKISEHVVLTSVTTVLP
assay.procedure: OX1 calcium mobilization functional assay
Type: cell-based
run.conditions: ratio of Ke values
readout.label: OX2/OX1

[[record]]
molecule = "CCOc1cc2c(cc1OC)CCN(CC(=O)NCc1ccccn1)C2Cc1ccc(OC)c(OC)c1 (centres unmarked)"
result = ">114"

[[record]]
molecule = "COc1ccc(CC2c3cc(OCCCCOc4ccccc4)c(OC)cc3CCN2CC(=O)NCc2ccccc2)cc1OC (centres unmarked)"
result = ">230"

[[record]]
molecule = "CCCOc1cc2c(cc1OC)CCN(CC(=O)NCc1cccnc1)C2Cc1ccc(OC)c(OC)c1 (centres unmarked)"
result = ">239"

[[record]]
molecule = "COc1ccc(CC2c3cc(OCC(F)(F)F)c(OC)cc3CCN2CC(=O)NCc2cccnc2)cc1OC (centres unmarked)"
result = ">1180"

[[record]]
molecule = "CCOc1cc2c(cc1OC)CCN(CC(=O)NCc1ccccc1)C2Cc1ccc(OC)c(OC)c1 (centres unmarked)"
result = ">333"

[[record]]
molecule = "CCCC(=O)Oc1cc2c(cc1OC)CCN(CC(=O)NCc1ccccc1)C2Cc1ccc(OC)c(OC)c1 (centres unmarked)"
result = ">127"

[[record]]
molecule = "COc1ccc(CC2c3cc(OC)c(OC)cc3CCN2CC(=O)NCc2ccc(N(C)C)cc2)cc1OC (centres unmarked)"
result = ">3.1"

[[record]]
molecule = "CCCOc1cc2c(cc1OC)CCN(CC(=O)NCc1ccccc1)C2Cc1ccc(OC)c(OC)c1 (centres unmarked)"
result = ">578"


* * *

Catalogue of compounds with associated OX2/OX1
measurement.target: orexin 1 (OX1) receptor (Homo sapiens)
assay.procedure: OX1 calcium mobilization functional assay
Format: cell-based
run.conditions: ratio of Ke values
readout.label: OX2/OX1

[[record]]
compound = "COc1ccc(CC2c3cc(OCC(F)(F)F)c(OC)cc3CCN2CC(=O)NCc2ccccn2)cc1OC (stereo not drawn)"
readout_label = "OX2/OX1"
result = ">444"

[[record]]
compound = "COc1ccc(CC2c3cc(OCC(F)(F)F)c(OC)cc3CCN2CC(=O)NCc2ccccc2)cc1OC (stereo not drawn)"
readout_label = "OX2/OX1"
result = ">1060"

[[record]]
compound = "COc1ccc(CC2c3cc(OC)c(OC)cc3CCN2CC(=O)NCc2cccnc2)cc1OC (stereo not drawn)"
readout_label = "OX2/OX1"
result = ">65.8"

[[record]]
compound = "COc1ccc(CC2c3cc(OS(=O)(=O)C(F)(F)F)c(OC)cc3CCN2CC(=O)NCc2ccccc2)cc1OC (stereo not drawn)"
readout_label = "OX2/OX1"
result = ">1000"

[[record]]
compound = "CCCCCC(=O)Nc1ccc(CNC(=O)CN2CCc3cc(OC)c(OC)cc3C2Cc2ccc(OC)c(OC)c2)cc1 (stereo not drawn)"
readout_label = "OX2/OX1"
result = "<0.4"

[[record]]
compound = "COc1ccc(CC2c3cc(OC)c(OC)cc3CCN2CC(=O)NCc2ccccn2)cc1OC (stereo not drawn)"
readout_label = "OX2/OX1"
result = ">38.3"


* * *

measurement.target: OX2 receptor (Homo sapiens)
Sequence (O43614 1-444): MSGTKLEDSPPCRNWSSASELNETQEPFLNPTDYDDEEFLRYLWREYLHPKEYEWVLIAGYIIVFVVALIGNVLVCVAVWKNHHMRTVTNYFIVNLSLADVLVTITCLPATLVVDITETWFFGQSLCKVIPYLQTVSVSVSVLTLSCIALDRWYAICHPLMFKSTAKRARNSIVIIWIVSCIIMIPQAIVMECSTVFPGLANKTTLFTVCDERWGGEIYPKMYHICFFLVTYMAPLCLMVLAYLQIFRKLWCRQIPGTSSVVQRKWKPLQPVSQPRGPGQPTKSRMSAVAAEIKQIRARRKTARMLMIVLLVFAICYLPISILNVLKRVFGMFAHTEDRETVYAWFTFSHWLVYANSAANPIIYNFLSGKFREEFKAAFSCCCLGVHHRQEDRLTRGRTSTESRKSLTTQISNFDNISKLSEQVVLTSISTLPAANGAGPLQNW
assay.procedure: OX2 calcium mobilization functional assay
Catalogue of compounds with associated Kd
readout.label: Kd

[[record]]
compound = "CCCC(=O)Oc1cc2c(cc1OC)CCN(CC(=O)NCc1ccccc1)C2Cc1ccc(OC)c(OC)c1 (stereo not shown)"
readout_label = "Kd"
result = "> 10 µM"

[[record]]
compound = "COc1ccc(CC2c3cc(OC)c(OC)cc3CCN2CC(=O)N2CCc3ccccc3C2)cc1OC (stereo not shown)"
readout_label = "Kd"
result = "9 µM"

[[record]]
compound = "CCOc1cc2c(cc1OC)CCN(CC(=O)NCc1ccccc1)C2Cc1ccc(OC)c(OC)c1 (stereo not shown)"
readout_label = "Kd"
result = "> 10 µM"

[[record]]
compound = "COc1ccc(CC2c3cc(OS(C)(=O)=O)c(OC)cc3CCN2CC(=O)NCc2ccccc2)cc1OC (stereo not shown)"
readout_label = "Kd"
result = "2.17 µM"

[[record]]
compound = "CCCOc1cc2c(cc1OC)CCN(CC(=O)NCc1ccccn1)C2Cc1ccc(OC)c(OC)c1 (stereo not shown)"
readout_label = "Kd"
result = "> 10 µM"

[[record]]
compound = "CCCCCCOc1cc2c(cc1OC)CCN(CC(=O)NCc1ccccc1)C2Cc1ccc(OC)c(OC)c1 (stereo not shown)"
readout_label = "Kd"
result = "> 10 µM"

[[record]]
compound = "COc1ccc(CC2c3cc(OCCCCOc4ccccc4)c(OC)cc3CCN2CC(=O)NCc2ccccc2)cc1OC (stereo not shown)"
readout_label = "Kd"
result = "> 10 µM"

[[record]]
compound = "COc1ccc(CC2c3cc(OC)c(OC)cc3CCN2CC(=O)NC2CCCc3ccccc32)cc1OC (stereo not shown)"
readout_label = "Kd"
result = "0.655 µM"

[[record]]
compound = "CCOc1cc2c(cc1OC)CCN(CC(=O)NCc1ccccn1)C2Cc1ccc(OC)c(OC)c1 (stereo not shown)"
readout_label = "Kd"
result = "> 10 µM"

[[record]]
compound = "COc1ccc(CC2c3cc(OS(=O)(=O)C(F)(F)F)c(OC)cc3CCN2CC(=O)NCc2ccccc2)cc1OC (stereo not shown)"
readout_label = "Kd"
result = "> 10 µM"

[[record]]
compound = "COc1ccc(CC2c3cc(OC)c(OC)cc3CCN2CC(=O)NCc2ccccn2)cc1OC (stereo not shown)"
readout_label = "Kd"
result = "> 10 µM"

[[record]]
compound = "CCCCCCCNC(=O)CN1CCc2cc(OC)c(OC)cc2C1Cc1ccc(OC)c(OC)c1 (stereo not shown)"
readout_label = "Kd"
result = "2.31 µM"

[[record]]
compound = "CCCOc1cc2c(cc1OC)CCN(CC(=O)NCc1cccnc1)C2Cc1ccc(OC)c(OC)c1 (stereo not shown)"
readout_label = "Kd"
result = "> 10 µM"

[[record]]
compound = "CCCOc1cc2c(cc1OC)CCN(CC(=O)NCc1ccccc1)C2Cc1ccc(OC)c(OC)c1 (stereo not shown)"
readout_label = "Kd"
result = "> 10 µM"

[[record]]
compound = "COc1ccc(CC2c3cc(OCC(F)(F)F)c(OC)cc3CCN2CC(=O)NCc2ccccc2)cc1OC (stereo not shown)"
readout_label = "Kd"
result = "> 10 µM"

[[record]]
compound = "COc1ccc(CC2c3cc(OCC(F)(F)F)c(OC)cc3CCN2CC(=O)NCc2ccccn2)cc1OC (stereo not shown)"
readout_label = "Kd"
result = "> 10 µM"

